Test system: ATP;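 also: ATP exposure 15 min at 22 °C before imaging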
PROTOCOL: switch fluorescence ratio, 500 uM ATP over buffer (Cy3 cluster intensity, sum of 5 cycles each) (fold (ratio)); higher = stronger signal-on switching upon ATP binding; sequences stand for … in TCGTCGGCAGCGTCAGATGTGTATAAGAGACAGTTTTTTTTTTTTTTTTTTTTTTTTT…TC
CONDITION CONTEXT: aptamer strand: ATP DNA aptamer (quencher-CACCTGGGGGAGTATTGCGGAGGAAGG + anchor), 100 nM annealed; ATP concentration: 500 uM
Please mark rule met if the recorded switch fluorescence ratio is equal to or greater than 1, and rule not met if it falls below.

Below, 3 sequences whose answers are already recorded.
{"PRIMARY SEQUENCE": "TCGATAGTTG", "GROUP": "rule not met"}
{"PRIMARY SEQUENCE": "AGGGGTTAAC", "GROUP": "rule met"}
{"PRIMARY SEQUENCE": "CGCATTTTTT", "GROUP": "rule met"}

Ask: Does switch fluorescence ratio meet or surpass 1 for TTGTATCACG ?
Reply: rule met

Ask: Does switch fluorescence ratio meet or surpass 1 for GCTCCAATCG ?
Reply: rule met

Ask: Does switch fluorescence ratio meet or surpass 1 for TGGATTGACT ?
Reply: rule met
